target: CCR2 (Homo sapiens (Human)); assay: MCP-1 Receptor Binding Assay in THP-1 Cells; conditions: 0.5 nM 125I labeled MCP-1, 2 hours at 30° C., average of the two most similar values where more than one IC50, read-out: Inhibition of MCP-1 Binding IC50 CCR2 Binding
Sequence (P41597 other isoform, or with tags, fused parts or gaps isoform P41597-2): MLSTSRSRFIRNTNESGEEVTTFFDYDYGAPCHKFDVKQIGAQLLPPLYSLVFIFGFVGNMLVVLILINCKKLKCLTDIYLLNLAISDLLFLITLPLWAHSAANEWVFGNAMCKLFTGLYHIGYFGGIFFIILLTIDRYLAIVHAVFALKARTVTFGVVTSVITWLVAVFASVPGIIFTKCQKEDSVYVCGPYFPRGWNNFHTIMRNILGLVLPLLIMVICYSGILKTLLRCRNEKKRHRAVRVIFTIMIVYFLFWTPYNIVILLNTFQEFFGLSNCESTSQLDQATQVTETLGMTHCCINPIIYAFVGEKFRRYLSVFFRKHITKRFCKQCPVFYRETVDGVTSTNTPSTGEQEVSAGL
pIC50: −log10 of the molar value.
Measured Endpoint: pIC50

Would you please look over these solved cases?
QUERY: Fill in the blank: the reported pIC50 of NC(=O)C(NC1CCC(c2c[nH]c3ccncc23)CC1)C1CCN(C(=O)/C=C/c2ccc(F)cc2)CC1 (single isomer, unassigned) [Example 47b] is ____.
RESULT: 6.19

QUERY: Fill in the blank: the reported pIC50 of NC(=O)C(N[C@H]1CC[C@H](c2c[nH]c3ccncc32)CC1)C1CCN(C(=O)/C=C/c2cc(F)c(F)c(F)c2)CC1 (stereo partly drawn) [Example 41] is ____.
RESULT: 7.08

QUERY: Fill in the blank: the reported pIC50 of NC(=O)C(NC1CCC(c2c[nH]c3ccccc23)CC1)C1CCN(C(=O)Nc2cc(F)cc(F)c2)CC1 (stereo not drawn) [Example 30] is ____.
RESULT: 6.15

I. NC(=O)C(NC1CCC(c2c[nH]c3ccccc23)CC1)C1CCN(C(=O)Nc2ccc(F)c(F)c2)CC1 (stereo not drawn) [Example 32]
II. NC(=O)C(NC1CCC(c2c[nH]c3ccncc23)CC1)C1CCN(C(=O)/C=C/c2ccc(F)cc2)CC1 (single isomer, unassigned) [Example 47a]
III. NC(=O)C(NC1CCC(c2c[nH]c3cccnc23)CC1)C1CCN(C(=O)/C=C/c2cc(F)c(F)c(F)c2)CC1 (single isomer, unassigned) [Example 39a]
QUERY: hey, can you rank those compounds up there by pIC50? biggest number first please Answer format: list of labels, ordered as asked.
RESULT: III, II, I
